These measurements were taken from ChEMBL document CHEMBL2331407.

Give measured inhibition for each item. Keep answers brief.
Test system: alpha-glucosidase (Rattus norvegicus)
ASSAY DETAILS: Inhibition of rat intestinal alpha-glucosidase
Design: concentration or dose not given beside the values
RUN PARAMETERS: concentration not given here
Answers are plain numbers, in %.

Answered examples (3):
[
  {
    "COMPOUND": "C[C@H](C/C=C/C(C)(C)O)[C@H]1CC[C@@]2(C)[C@@H]3C=C[C@@]45OC[C@]3(CC[C@]12C)[C@@H]4CC[C@H](O[C@@H]1O[C@H](CO)[C@@H](O)[C@H](O)[C@H]1O)C5(C)C",
    "TESTED TARGET": "alpha-glucosidase (Rattus norvegicus)",
    "UNIT DESCRIPTOR": "%",
    "OBSERVED MEASUREMENT": 10.1
  },
  {
    "COMPOUND": "CO[C@@H]1O[C@]23C=C[C@@H]4[C@@]1(CC[C@]1(C)[C@@H]([C@H](C)C/C=C/C(C)(C)O)CC[C@@]41C)[C@@H]2CC[C@H](O[C@@H]1O[C@H](CO)[C@@H](O)[C@H](O)[C@H]1O)C3(C)C",
    "TESTED TARGET": "alpha-glucosidase (Rattus norvegicus)",
    "UNIT DESCRIPTOR": "%",
    "OBSERVED MEASUREMENT": 10.9
  },
  {
    "COMPOUND": "COC(C)(C)/C=C/C[C@@H](C)[C@H]1CC[C@@]2(C)[C@@H]3C=C[C@@]45OC[C@]3(CC[C@]12C)[C@@H]4CC[C@H](O[C@@H]1O[C@H](CO)[C@@H](O)[C@H](O)[C@H]1O)C5(C)C",
    "TESTED TARGET": "alpha-glucosidase (Rattus norvegicus)",
    "UNIT DESCRIPTOR": "%",
    "OBSERVED MEASUREMENT": 11.5
  }
]

Count: 3. Required value per item: inhibition.
1. COC(C)(C)/C=C/C[C@@H](C)[C@H]1CC[C@@]2(C)[C@@H]3CC[C@@]45OC(=O)[C@]3(CC[C@]12C)[C@@H]4CC[C@H](O[C@@H]1O[C@H](CO)[C@@H](O)[C@@H](O)[C@H]1O)C5(C)C
2. C[C@H](C/C=C/C(C)(C)O)[C@H]1CC[C@@]2(C)[C@@H]3C=C[C@@]45OC[C@]3(CC[C@]12C)[C@@H]4CC[C@H](O[C@@H]1O[C@H](CO)[C@@H](O)[C@@H](O)[C@H]1O)C5(C)C
3. CC(C)=C[C@H](O[C@@H]1O[C@H](CO)[C@@H](O)[C@@H](O)[C@H]1O)[C@@H](O)[C@@H](C)[C@H]1CC[C@@]2(C)[C@@H]3C=C[C@@]45OC[C@]3(CC[C@]12C)[C@@H]4CC[C@H](O[C@@H]1O[C@H](CO)[C@@H](O)[C@H](O)[C@H]1O)C5(C)C

13.6
12.5
18.6

Hey, can you go through the list below and give me inhibition for every item?
1. C[C@H](CC(O)C(O)C(C)(C)O)[C@H]1CC[C@@]2(C)[C@@H]3CC=C4[C@@H](CC[C@H](O[C@@H]5O[C@H](CO[C@@H]6O[C@H](CO)[C@@H](O)[C@H](O)[C@H]6O)[C@@H](O)[C@H](O)[C@H]5O)C4(C)C)[C@]3(C)CC[C@]12C (some centres undefined)
2. C[C@H]([C@H](O)[C@@H](O)[C@@H](O)C(C)(C)O)[C@H]1CC[C@@]2(C)[C@@H]3CC=C4[C@@H](CC[C@H](O[C@@H]5O[C@H](CO[C@@H]6O[C@H](CO)[C@@H](O)[C@H](O)[C@H]6O)[C@@H](O)[C@H](O)[C@H]5O)C4(C)C)[C@]3(C)CC[C@]12C
3. CO[C@H]1C=C2[C@@H](CC[C@H](O[C@@H]3O[C@H](CO)[C@@H](O)[C@@H](O)[C@H]3O)C2(C)C)[C@]2(C)CC[C@]3(C)[C@@H]([C@H](C)C/C=C/C(C)(C)O)CC[C@@]3(C)[C@H]12

13
21.7
15.8
